Attribute Measured: melting point

CN(Cc1cc2nc(-c3cc(O)ccc3F)nc(N3CCOCC3)c2s1)c1ncc(C(=O)NO)cn1 [Compound 292]; 250 to 255 °C
CN(CCCCCCC(=O)NO)Cc1cc2nc(-c3cccc4[nH]ncc34)nc(N3CCOCC3)c2s1 [Compound 104]; 131 to 133 °C
O=C(NO)c1ccc(NCc2cc3nc(-c4cccc5[nH]ncc45)nc(N4CCOCC4)c3s2)cc1 [Compound 78]; 180 to 183 °C
Nc1ccc(-c2nc(N3CCOCC3)c3sc(CNc4ncc(C(=O)NO)cn4)cc3n2)cc1 [Compound 211]; 217 to 223 °C

Read the next record carefully.
What measured melting point goes with CN(C)c1ncc(-c2nc(N3CCOCC3)c3sc(CN(C)c4ncc(C(=O)NO)cn4)cc3n2)cn1 [Compound 117] ?
200 to 206 °C

----------
Study System: PI3Kα (p110α/p85α) (Homo sapiens)
Construct: GST (N)
Sequence (P42336 whole entry): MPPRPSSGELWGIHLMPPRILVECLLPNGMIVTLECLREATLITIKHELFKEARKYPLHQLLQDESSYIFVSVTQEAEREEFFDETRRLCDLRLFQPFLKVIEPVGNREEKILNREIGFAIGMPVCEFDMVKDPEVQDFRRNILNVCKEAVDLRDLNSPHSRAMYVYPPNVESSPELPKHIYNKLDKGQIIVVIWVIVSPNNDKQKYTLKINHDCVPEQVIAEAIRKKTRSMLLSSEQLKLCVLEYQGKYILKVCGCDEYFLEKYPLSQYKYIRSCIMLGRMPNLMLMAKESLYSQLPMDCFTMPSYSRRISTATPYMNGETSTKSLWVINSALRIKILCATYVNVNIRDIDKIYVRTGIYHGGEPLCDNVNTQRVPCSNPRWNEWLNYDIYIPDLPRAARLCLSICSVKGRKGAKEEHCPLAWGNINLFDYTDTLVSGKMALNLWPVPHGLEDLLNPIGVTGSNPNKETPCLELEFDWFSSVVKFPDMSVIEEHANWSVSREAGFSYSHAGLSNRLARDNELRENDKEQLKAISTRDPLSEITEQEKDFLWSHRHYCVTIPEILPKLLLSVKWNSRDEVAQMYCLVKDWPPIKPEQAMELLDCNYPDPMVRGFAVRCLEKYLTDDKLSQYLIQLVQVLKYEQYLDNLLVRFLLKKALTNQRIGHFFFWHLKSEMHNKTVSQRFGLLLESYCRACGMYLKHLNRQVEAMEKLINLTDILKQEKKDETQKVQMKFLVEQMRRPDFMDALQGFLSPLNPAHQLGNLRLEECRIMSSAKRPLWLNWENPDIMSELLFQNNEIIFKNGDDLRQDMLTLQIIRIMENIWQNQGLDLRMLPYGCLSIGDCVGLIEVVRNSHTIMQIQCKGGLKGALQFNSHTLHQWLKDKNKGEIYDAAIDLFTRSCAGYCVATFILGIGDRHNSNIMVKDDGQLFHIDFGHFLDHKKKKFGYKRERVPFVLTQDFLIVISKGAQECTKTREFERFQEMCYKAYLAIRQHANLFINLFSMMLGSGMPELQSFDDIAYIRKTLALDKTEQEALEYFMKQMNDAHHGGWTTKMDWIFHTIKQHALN
Sequence (P27986 whole entry partner): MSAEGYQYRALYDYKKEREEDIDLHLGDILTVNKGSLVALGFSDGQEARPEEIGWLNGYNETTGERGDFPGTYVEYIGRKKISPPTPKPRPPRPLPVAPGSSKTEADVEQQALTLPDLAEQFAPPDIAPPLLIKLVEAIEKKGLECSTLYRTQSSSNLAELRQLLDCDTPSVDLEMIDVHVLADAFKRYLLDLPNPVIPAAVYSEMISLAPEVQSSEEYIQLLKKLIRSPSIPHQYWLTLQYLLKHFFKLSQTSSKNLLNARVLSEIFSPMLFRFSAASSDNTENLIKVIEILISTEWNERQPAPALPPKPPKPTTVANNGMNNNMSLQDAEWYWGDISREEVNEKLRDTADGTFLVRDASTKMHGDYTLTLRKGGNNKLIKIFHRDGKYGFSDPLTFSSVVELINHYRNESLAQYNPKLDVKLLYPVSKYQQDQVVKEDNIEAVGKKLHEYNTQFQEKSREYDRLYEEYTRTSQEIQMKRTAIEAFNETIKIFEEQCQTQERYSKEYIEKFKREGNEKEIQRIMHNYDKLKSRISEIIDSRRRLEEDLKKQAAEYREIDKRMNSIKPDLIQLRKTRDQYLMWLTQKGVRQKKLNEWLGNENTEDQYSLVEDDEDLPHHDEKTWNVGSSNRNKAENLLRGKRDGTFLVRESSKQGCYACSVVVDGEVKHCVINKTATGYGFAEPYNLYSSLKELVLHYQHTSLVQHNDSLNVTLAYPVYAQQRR
Measurement Description: PI3Kα ADP-Glo assay
Condition Description: 20 μM PIP2, 10 μM ATP, 30 minutes
pIC50: −log10 of the molar value.
Attribute Measured: pIC50

CNc1ccc(-c2nc(N3CCOCC3)c3sc(C(C)(C)Nc4ncc(C(=O)NO)cn4)cc3n2)cn1 [Compound 240]; > 7.00
CN(Cc1cc2nc(-c3ccc(N)c(Cl)c3)nc(N3CCOCC3)c2s1)c1ncc(C(=O)NO)cn1 [Compound 275]; 6.00 to 7.00
CN(Cc1cc2nc(-c3ccc(N)cc3F)nc(N3CCOCC3)c2s1)c1ncc(C(=O)NO)cn1 [Compound 283]; 6.00 to 7.00

What measured pIC50 goes with CN(Cc1cc2nc(-c3ccc(N)cc3)nc(N3CCOCC3)c2s1)c1ccc(C(=O)NO)cc1 [Compound 206] ?
6.00 to 7.00

What measured pIC50 goes with CN(Cc1cc2nc(-c3ccc([N+](=O)[O-])c(O)c3)nc(N3CCOCC3)c2s1)c1ncc(C(=O)NO)cn1 [Compound 293] ?
> 7.00

What measured pIC50 goes with Cc1ccc(-c2nc(N3CCOCC3)c3sc(CN(C)c4ncc(C(=O)NO)cn4)cc3n2)cc1 [Compound 201] ?
6.00 to 7.00

What measured pIC50 goes with CNc1ccc(-c2nc(N3CCOCC3)c3sc(N(C)c4ncc(C(=O)NO)cn4)cc3n2)cn1 [Compound 243] ?
> 7.00

----------
Test system: HDACs (HeLa cell nuclear extracts)
Measurement Description: HDAC enzymatic activity, Biomol Color de Lys system
Format: biochemical
Condition Description: 1 hour, 25° C.
pIC50: −log10 of the molar value.
Attribute Measured: pIC50

Worked cases, answers included:
CN(Cc1cc2nc(-c3cccc4[nH]ncc34)nc(NCCO)c2s1)c1ncc(C(=O)NO)cn1 [Compound 161]; > 7.00
CN(Cc1cc2nc(-c3cccc4[nH]ncc34)nc(N3CCOCC3)c2s1)c1ccc(/C=C/C(=O)NO)cc1 [Compound 81]; 5.00 to 6.00

What measured pIC50 goes with CS(=O)(=O)N1CCN(Cc2cc3nc(-c4cccc5[nH]ncc45)nc(N4CCN(CCCCC(=O)NO)CC4)c3s2)CC1 [Compound 30] ?
6.00 to 7.00

What measured pIC50 goes with COc1ccc(-c2nc(N3CCOCC3)c3sc(NS(=O)(=O)c4cccc(/C=C/C(=O)NO)c4)cc3n2)cn1 [Compound 221] ?
> 7.00
